So I've got a bunch of sequences here, and I need their self-aminoacylation values.
test system: biotinyl-Leu-oxazolone; assay: self-aminoacylation, catalytic enhancement (BLO) (fold over background); higher = more active; k-Seq, kA / k0A0; sequences stand for … in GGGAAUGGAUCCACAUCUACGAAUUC…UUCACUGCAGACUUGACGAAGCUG
Fewer inactive variants are shown than the library holds.
One number for each entry.

Some solved cases for reference:
AUUACGCUGGUCAUCGAGUGC [Fam2.1 aminoacylation ribozyme variant]: 1.31
CUACUUCAAACAUUCGGUCUC [Fam1A.1 aminoacylation ribozyme variant]: 0.806
CUACUUAAAACAAUCGGUCUA [Fam1A.1 aminoacylation ribozyme variant]: 0.602
CUACUUCAAACAAUUGGACUG [Fam1A.1 aminoacylation ribozyme variant]: 0.664
AAGCUUGCUAAUAGUCGCAGG [Fam3.1 aminoacylation ribozyme variant]: 2.14

# batch size: 6; output self-aminoacylation per entry
1. CCACCCUGCAAGCAAUCGGUC [Fam1B.1 aminoacylation ribozyme variant]
2. AUUACCCCGGUCAUCGAGUGG [Fam2.1 aminoacylation ribozyme variant]
3. CUACUUCAGACAAUCGGUCUU [Fam1A.1 aminoacylation ribozyme variant]
4. CCACAUUUCAAGUAAUCGGUC [Fam1B.1 aminoacylation ribozyme variant]
5. CCCCACUUCAAGCAAUGGGUC [Fam1B.1 aminoacylation ribozyme variant]
6. GUUCACCUAGGUCUUCGGGUG [Fam2.2 aminoacylation ribozyme variant]

*A*
1: 1.17; 2: 2.42; 3: 0.919; 4: 1.14; 5: 0.835; 6: 5.73

// input: 2 sequences below; output: self-aminoacylation for each
1. AUUACGCUGGCCAUCGAGUGA [Fam2.1 aminoacylation ribozyme variant]
2. AUUGACCUGGGUCAUCGGGUG [Fam2.2 aminoacylation ribozyme variant]

*A*
5.89
29.6

====

What self-aminoacylation was measured for each of the following?
test system: biotinyl-Val-oxazolone; experiment: self-aminoacylation, catalytic enhancement (BVO) (fold over background); higher = more active; k-Seq, kA / k0A0; sequences stand for … in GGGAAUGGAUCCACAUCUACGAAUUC…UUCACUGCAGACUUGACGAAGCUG
Variants at the floor of the assay were thinned out.
Answers are plain numbers.

// known answers, use as guide
CUACUUCCAACAAUCGGGCUG [Fam1A.1 aminoacylation ribozyme variant]: 1.27
CCGCACUUCAAGCAAUCGGCC [Fam1B.1 aminoacylation ribozyme variant]: 3.21
CUUCACCUAGGACAUCGGGUG [Fam2.2 aminoacylation ribozyme variant]: 2.68
CUUCUUAAAACAAUCGGUCUG [Fam1A.1 aminoacylation ribozyme variant]: 0.748
AAUAACCUGGUCAUCGAGUGA [Fam2.1 aminoacylation ribozyme variant]: 3.55
CCCCACUUCAAGCCAUCGGUC [Fam1B.1 aminoacylation ribozyme variant]: 2.82
AGUCACCUUGGUCAUCGGGUG [Fam2.2 aminoacylation ribozyme variant]: 4.85
AUUCACUUAGGUCAUCGGGAG [Fam2.2 aminoacylation ribozyme variant]: 1.11

Give measured self-aminoacylation for every item shown.
1. AUUACCCUGGUCAAGGAGUGA [Fam2.1 aminoacylation ribozyme variant]
2. AUUCACCUAGGCCCUCGGGUG [Fam2.2 aminoacylation ribozyme variant]
3. AUUACCCUGGUUAUCGCGUGA [Fam2.1 aminoacylation ribozyme variant]
4. AUUAACCUAAGUCAUCGGGUG [Fam2.2 aminoacylation ribozyme variant]
5. CCACUCUUCAAGCCAUCGGUC [Fam1B.1 aminoacylation ribozyme variant]
6. GUUCACCUAGGACAUCGGGUG [Fam2.2 aminoacylation ribozyme variant]

*A*
[2.04, 3.1, 6.04, 4.74, 1.21, 3.56]

Each sequence below has a recorded value; state its self-aminoacylation.
1. AAGCUUGCCAAUAGUCGCAAG [Fam3.1 aminoacylation ribozyme variant]
2. AUUCACCUAUGCCAUCGGGUG [Fam2.2 aminoacylation ribozyme variant]
3. CUAGUUCAAAAAAUCGGUCUG [Fam1A.1 aminoacylation ribozyme variant]

*A*
1: 2.42; 2: 1.98; 3: 0.752

Please state, for each entry, its recorded self-aminoacylation.
1. AAUUCCCUGGUCAUCGAGUGA [Fam2.1 aminoacylation ribozyme variant]
2. CAUCUUCAAACAAUCGGUCUG [Fam1A.1 aminoacylation ribozyme variant]
3. AUUCCCCUGGUCAUCGAUUGA [Fam2.1 aminoacylation ribozyme variant]
4. AUUUACCUAUGUCAUCGGGUG [Fam2.2 aminoacylation ribozyme variant]
5. CCACACUCCUAGCAAUCGGUC [Fam1B.1 aminoacylation ribozyme variant]
6. AUUCGCCUACGUCAUCGGGUG [Fam2.2 aminoacylation ribozyme variant]
7. AAGUAUGCUAAUAGUCGCAAA [Fam3.1 aminoacylation ribozyme variant]

*A*
6.09
1.23
1.79
2.96
1.04
3.86
1.96

Would you be so kind as to report self-aminoacylation for each listed record?
1. AAGUUUGCUAAUAGACACAAG [Fam3.1 aminoacylation ribozyme variant]
2. CCACCCUGCAAGCAAUCGGUC [Fam1B.1 aminoacylation ribozyme variant]
3. AUUCCCCUAGGUUAUCGGGUG [Fam2.2 aminoacylation ribozyme variant]
4. AUUCACCGAGGCCAUCGGGUG [Fam2.2 aminoacylation ribozyme variant]
5. ACUACCCUGGUCCUCGAGUGA [Fam2.1 aminoacylation ribozyme variant]
6. ACUCACCUAGGACAUCGGGUG [Fam2.2 aminoacylation ribozyme variant]

*A*
[0.916, 1.73, 13.3, 4.36, 2.25, 4.87]

====

test system: biotinyl-Ile-oxazolone; assay: self-aminoacylation, catalytic enhancement (BIO) (fold over background); higher = more active; k-Seq, kA / k0A0; sequences stand for … in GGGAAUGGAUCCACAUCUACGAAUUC…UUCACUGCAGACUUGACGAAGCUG
Fewer inactive variants are shown than the library holds.
ENDPOINT_LABEL: self-aminoacylation

AUUCACCUAUGUGAUCGGGUG [Fam2.2 aminoacylation ribozyme variant]: 1.69
CCACACUUCUAGCCAUCGGUC [Fam1B.1 aminoacylation ribozyme variant]: 0.924

*Q* Return reported self-aminoacylation. Input sequence: CUACUUCAAUCAACCGGUCUG [Fam1A.1 aminoacylation ribozyme variant]
*A* 0.925

====

system: biotinyl-Phe-oxazolone; assay: self-aminoacylation, catalytic enhancement (BFO) (fold over background); higher = more active; k-Seq, kA / k0A0; sequences stand for … in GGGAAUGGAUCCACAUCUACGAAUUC…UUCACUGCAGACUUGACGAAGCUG
Fewer inactive variants are shown than the library holds.
ENDPOINT_LABEL: self-aminoacylation
One number for each entry.

Observe how each entry below is paired with its result.
AUUCACCUAUGUCCUCGGGUG [Fam2.2 aminoacylation ribozyme variant]: 21.6
AUUACCCCGGUCAUCCAGUGA [Fam2.1 aminoacylation ribozyme variant]: 31.4
AAGUUUGCUAAUACUCUCAAG [Fam3.1 aminoacylation ribozyme variant]: 0.931
AGUACCCUAGUCAUCGAGUGA [Fam2.1 aminoacylation ribozyme variant]: 24.6
ACACCCUUCAAGCAAUCGGUC [Fam1B.1 aminoacylation ribozyme variant]: 2.12

Please give self-aminoacylation for each item listed below.
1. CCACACUUCAACCAAUCGGCC [Fam1B.1 aminoacylation ribozyme variant]
2. AAGUUAGCUAAUAGUCGUAAG [Fam3.1 aminoacylation ribozyme variant]
3. AUGACCCAGGUCAUCGAGUGA [Fam2.1 aminoacylation ribozyme variant]
4. CCAGACUUCAAGCAGUCGGUC [Fam1B.1 aminoacylation ribozyme variant]
5. CCACACUUCAAGUAAUCGGUG [Fam1B.1 aminoacylation ribozyme variant]
6. CCACAGUUCAAGCACUCGGUC [Fam1B.1 aminoacylation ribozyme variant]

*A*
4.99
14
17.9
1.4
33.4
3.53

Could I get self-aminoacylation for every one of these entries?
1. AUUUACCUAGGCCAUCGGGUG [Fam2.2 aminoacylation ribozyme variant]
2. AUUCACCUAGGUCGUCCGGUG [Fam2.2 aminoacylation ribozyme variant]

*A*
1. 17.4
2. 14.4

Please go through the list and note self-aminoacylation for each sequence.
1. AUUACACUGAUCAUCGAGUGA [Fam2.1 aminoacylation ribozyme variant]
2. AUUACCCUGGUCAUCCAGAGA [Fam2.1 aminoacylation ribozyme variant]
3. UUUCACCUAGGUCAUCUGGUG [Fam2.2 aminoacylation ribozyme variant]

*A*
1: 21.1; 2: 2.38; 3: 9.3

*Q* Please look at this sequence and report its self-aminoacylation: AAGUUUUAUAAUAGUCGCAAG [Fam3.1 aminoacylation ribozyme variant]
*A* 3.02

====

tested on: biotinyl-Ile-oxazolone; assay: self-aminoacylation, catalytic enhancement (BIO) (fold over background); higher = more active; k-Seq, kA / k0A0; sequences stand for … in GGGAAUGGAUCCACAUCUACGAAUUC…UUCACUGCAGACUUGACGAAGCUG
Variants at the floor of the assay were thinned out.
ENDPOINT_LABEL: self-aminoacylation
One number for each entry.

Solved entries:
AUUACCCUGGUCAAGGAGUGA [Fam2.1 aminoacylation ribozyme variant]: 1.94
AUUCACCUAGAUCAUGGGGUG [Fam2.2 aminoacylation ribozyme variant]: 3.07
AUGCACCUAGGUCAUCGCGUG [Fam2.2 aminoacylation ribozyme variant]: 5.09

// each listed sequence needs a value for self-aminoacylation
1. AUUACCAUGGUCAUCUAGUGA [Fam2.1 aminoacylation ribozyme variant]
2. GUUACCCUGGUCAUCGAGUAA [Fam2.1 aminoacylation ribozyme variant]
3. AUUCACCUAUGGCAUCGGGUG [Fam2.2 aminoacylation ribozyme variant]

*A*
[5.41, 6.86, 1.96]

*Q* State its self-aminoacylation for this sequence: CCAGACUUCAAGCAAUCUGUC [Fam1B.1 aminoacylation ribozyme variant]
*A* 0.467
